B1: library; numbered along this chain (parent)
chain: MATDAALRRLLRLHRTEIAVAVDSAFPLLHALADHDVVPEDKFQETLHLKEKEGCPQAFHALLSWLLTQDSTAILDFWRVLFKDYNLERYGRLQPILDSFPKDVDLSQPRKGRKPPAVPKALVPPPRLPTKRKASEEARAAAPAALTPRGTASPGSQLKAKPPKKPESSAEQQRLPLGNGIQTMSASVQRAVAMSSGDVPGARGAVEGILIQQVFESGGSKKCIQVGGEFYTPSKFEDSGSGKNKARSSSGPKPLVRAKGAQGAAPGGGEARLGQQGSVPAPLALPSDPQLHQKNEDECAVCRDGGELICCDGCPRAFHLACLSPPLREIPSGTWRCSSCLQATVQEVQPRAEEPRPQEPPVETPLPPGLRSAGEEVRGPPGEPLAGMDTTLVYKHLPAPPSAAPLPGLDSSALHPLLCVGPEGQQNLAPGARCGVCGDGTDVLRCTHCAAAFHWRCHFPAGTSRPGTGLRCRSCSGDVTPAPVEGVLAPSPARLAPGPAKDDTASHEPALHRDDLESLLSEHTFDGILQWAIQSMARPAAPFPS

- Variants of: B1
- Measurement Notes: AIRE transcriptional activation functional score (insulin promoter-GFP; nonsense median 0, synonymous median 1) (normalised score); higher = higher AIRE activity (more reporter activation)
- Run Parameters: with insulin promoter-GFP reporter in HEK293
Each entry below lists one item and its recorded AIRE transcriptional activation functional score value.

Reference set, count: 3
Sequence Change	Experimental Result
K120W	1.43
R456W	-0.304
T390F	1.29

Here's the next entry for you.
The measured AIRE transcriptional activation functional score associated with A117R reads 0.501
